Values compiled from PubChem BioAssay AID2060483.

Test system: K24384-001-R-PDC complex spheroids, viability;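 also: spheroids exposed to compounds for seven days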
Test: Anticancer human tumor K24384-001-R-PDC patient-derived pancreatic adenocarcinoma cell line growth inhibition [GQUAD]; active = viability on the fitted dose curve at most 10% of control; inactive = the rest
Conditions: second compound 10 µM; first compound 1 µM
Field 'call' accepts active, inactive

compound	labelValue
COc1ccc([C@@H](O)c2cc(-c3ncnc4cc(N5CCOCC5)ccc34)c(F)cc2Cl)nn1 + CN(C)c1ccc(Nc2c3ccc(NC(=O)CCN4CCCC4)cc3nc3cc(NC(=O)CCN4CCCC4)ccc23)cc1	inactive
Nc1ccn(C2OC(CO)C(O)C2(F)F)c(=O)n1 (centres undefined) + Cc1[nH]c2ccc(F)cc2c1-c1nc2c3cccnc3c3ncccc3c2[nH]1	inactive
Nc1ccn(C2OC(CO)C(O)C2(F)F)c(=O)n1 (centres undefined) + CN(C)c1ccc(Nc2c3ccc(NC(=O)CCN4CCCC4)cc3nc3cc(NC(=O)CCN4CCCC4)ccc23)cc1	inactive
COc1cc(C2c3cc4c(cc3C(OC3OC5COC(C)OC5C(O)C3O)C3COC(=O)C23)OCO4)cc(OC)c1O (centres undefined) + CN(C)c1ccc(Nc2c3ccc(NC(=O)CCN4CCCC4)cc3nc3cc(NC(=O)CCN4CCCC4)ccc23)cc1	inactive
C=CC(=O)N1CCN(c2nc(=O)n(-c3c(C)ccnc3C(C)C)c3nc(-c4c(O)cccc4F)c(F)cc23)C(C)C1 (centres undefined) + CN(C)c1ccc(Nc2c3ccc(NC(=O)CCN4CCCC4)cc3nc3cc(NC(=O)CCN4CCCC4)ccc23)cc1	inactive

-- ask Could you please tell me the result logged for O=C(NO)c1cnc(N2CCN(S(=O)(=O)c3ccc4ccccc4c3)CC2)nc1 + CN(C)c1ccc(Nc2c3ccc(NC(=O)CCN4CCCC4)cc3nc3cc(NC(=O)CCN4CCCC4)ccc23)cc1 in this assay?
-- reply inactive

-- ask Next: O=C(c1cc(Cc2n[nH]c(=O)c3ccccc23)ccc1F)N1CCN(C(=O)C2CC2)CC1 + Cc1[nH]c2ccc(F)cc2c1-c1nc2c3cccnc3c3ncccc3c2[nH]1
-- reply inactive

-- ask Next: O=c1[nH]cc(F)c(=O)[nH]1 + CN(C)c1ccc(Nc2c3ccc(NC(=O)CCN4CCCC4)cc3nc3cc(NC(=O)CCN4CCCC4)ccc23)cc1
-- reply inactive

-- ask Next: C=CC(=O)N1CCN(c2nc(=O)n(-c3c(C)ccnc3C(C)C)c3nc(-c4c(O)cccc4F)c(F)cc23)C(C)C1 (centres undefined) + Cc1[nH]c2ccc(F)cc2c1-c1nc2c3cccnc3c3ncccc3c2[nH]1
-- reply inactive

-- ask Next: CCCS(=O)(=O)Nc1ccc(F)c(C(=O)c2c[nH]c3ncc(-c4ccc(Cl)cc4)cc23)c1F + Cc1cnc(CNC(=O)c2c(=O)c3ccc(N4CCCN(C)CC4)nc3n3c2sc2ccccc23)cn1
-- reply active

-- ask Next: O=C(c1cc(Cc2n[nH]c(=O)c3ccccc23)ccc1F)N1CCN(C(=O)C2CC2)CC1 + Cc1cnc(CNC(=O)c2c(=O)c3ccc(N4CCCN(C)CC4)nc3n3c2sc2ccccc23)cn1
-- reply inactive

-- ask Next: C=CCn1c(=O)c2cnc(Nc3ccc(N4CCN(C)CC4)cc3)nc2n1-c1cccc(C(C)(C)O)n1 + Cc1cnc(CNC(=O)c2c(=O)c3ccc(N4CCCN(C)CC4)nc3n3c2sc2ccccc23)cn1
-- reply active

-- ask Next: CC1COCCN1c1cc(-c2ccnn2C)c2ccnc(-c3ccn[nH]3)c2n1 (centres undefined) + Cc1[nH]c2ccc(F)cc2c1-c1nc2c3cccnc3c3ncccc3c2[nH]1
-- reply inactive

-- ask Next: CC1COCCN1c1cc(-c2ccnn2C)c2ccnc(-c3ccn[nH]3)c2n1 (centres undefined) + Cc1cnc(CNC(=O)c2c(=O)c3ccc(N4CCCN(C)CC4)nc3n3c2sc2ccccc23)cn1
-- reply inactive
